Biological target: HGFR (Homo sapiens, UniProt P08581)
Construct: purchased Upstate 14-526
Sequence (P08581 974-1390 limits assumed): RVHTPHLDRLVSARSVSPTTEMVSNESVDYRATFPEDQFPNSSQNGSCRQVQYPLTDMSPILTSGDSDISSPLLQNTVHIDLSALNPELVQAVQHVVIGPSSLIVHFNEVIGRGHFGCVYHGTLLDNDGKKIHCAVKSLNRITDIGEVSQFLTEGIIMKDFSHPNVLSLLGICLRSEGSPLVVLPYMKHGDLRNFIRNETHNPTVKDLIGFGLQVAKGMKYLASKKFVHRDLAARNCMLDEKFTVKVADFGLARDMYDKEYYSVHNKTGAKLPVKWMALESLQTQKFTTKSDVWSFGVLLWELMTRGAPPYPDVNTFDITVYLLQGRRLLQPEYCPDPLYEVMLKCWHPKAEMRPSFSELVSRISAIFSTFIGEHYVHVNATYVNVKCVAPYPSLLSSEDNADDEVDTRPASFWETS
Assay: HGFR continuous-coupled spectrophotometric assay
Type: biochemical
Settings: at 1 pM; Table 6, library procedure 41; read-out: % Inhibition (percent c-MET inhibition)
Label true (1) when inhibition at 1 pM is at or above 30%; otherwise label false (0).

# molecule, label_value
measured = [
    ("Nc1ncc(C(=O)NCc2ccc[nH]c2=O)cc1OCc1c(Cl)cccc1Cl [Example L-310]", "false (0)"),
    ("Nc1ncc(C(=O)NCc2ccc(F)cc2F)cc1OCc1c(Cl)cccc1Cl [Example L-245]", "true (1)"),
    ("Nc1ncc(C(=O)N2CCC3(CCNC3=O)CC2)cc1OCc1c(Cl)cccc1Cl [Example L-284]", "false (0)"),
    ("Nc1ncc(C(=O)N2CCCN(Cc3ccc(F)cc3)CC2)cc1OCc1c(Cl)cccc1Cl [Example L-277]", "false (0)"),
    ("CCN1CCCC(NC(=O)c2cnc(N)c(OCc3c(Cl)cccc3Cl)c2)C1 [Example L-312]", "false (0)"),
    ("CN(C)C1CCN(C(=O)c2cnc(N)c(OCc3c(Cl)cccc3Cl)c2)C1 [Example L-244]", "true (1)"),
    ("CN(C)C(=O)CN1CCN(C(=O)c2cnc(N)c(OCc3c(Cl)cccc3Cl)c2)CC1 [Example L-262]", "true (1)"),
    ("Nc1ncc(C(=O)NCCO)cc1OCc1c(Cl)cccc1Cl [Example L-239]", "true (1)"),
    ("Cc1ccc2nc(CNC(=O)c3cnc(N)c(OCc4c(Cl)cccc4Cl)c3)cn2c1 [Example L-347]", "true (1)"),
    ("Nc1ncc(C(=O)N2CCCC(C(=O)N3CCCC3)C2)cc1OCc1c(Cl)cccc1Cl [Example L-286]", "true (1)"),
    ("CN(CCC1CCC(=O)N1CC(F)(F)F)C(=O)c1cnc(N)c(OCc2c(Cl)cccc2Cl)c1 [Example L-321]", "false (0)"),
    ("Nc1ncc(C(=O)NC2CCN(Cc3ccccc3)C2)cc1OCc1c(Cl)cccc1Cl [Example L-184]", "false (0)"),
    ("Nc1ncc(C(=O)N2CCCC(Cc3ncccn3)C2)cc1OCc1c(Cl)cccc1Cl [Example L-324]", "false (0)"),
    ("Nc1ncc(C(=O)NCCc2ccccc2F)cc1OCc1c(Cl)cccc1Cl [Example L-199]", "true (1)"),
    ("NC(=O)C1CCCN(C(=O)c2cnc(N)c(OCc3c(Cl)cccc3Cl)c2)C1 [Example L-188]", "true (1)"),
    ("Nc1ncc(C(=O)N2CCC(O)(CN3CCCC3=O)C2)cc1OCc1c(Cl)cccc1Cl [Example L-337]", "false (0)"),
    ("Nc1ncc(C(=O)N2CCCC(N3CCOCC3)CC2)cc1OCc1c(Cl)cccc1Cl [Example L-335]", "false (0)"),
    ("CCC(CC)CN1CCC2(CC1)CC(NC(=O)c1cnc(N)c(OCc3c(Cl)cccc3Cl)c1)CO2 [Example L-330]", "true (1)"),
    ("CC(C)(O)c1ccc(CNC(=O)c2cnc(N)c(OCc3c(Cl)cccc3Cl)c2)cc1 [Example L-289]", "false (0)"),
    ("Nc1ncc(C(=O)N2CCN(Cc3cccc4ccccc34)CC2)cc1OCc1c(Cl)cccc1Cl [Example L-281]", "false (0)"),
    ("Cc1ccc(N2CCN(CCCCNC(=O)c3cnc(N)c(OCc4c(Cl)cccc4Cl)c3)CC2)cc1 [Example L-268]", "false (0)"),
    ("Nc1ncc(C(=O)NCc2ccc(C(F)(F)F)nc2)cc1OCc1c(Cl)cccc1Cl [Example L-265]", "false (0)"),
    ("Cc1ccc(F)c(CNC(=O)c2cnc(N)c(OCc3c(Cl)cccc3Cl)c2)c1F [Example L-278]", "true (1)"),
    ("Nc1ncc(C(=O)NCc2cccc(OC(F)F)c2)cc1OCc1c(Cl)cccc1Cl [Example L-249]", "true (1)"),
    ("Nc1ncc(C(=O)N2CCC(C(=O)c3ccccc3)CC2)cc1OCc1c(Cl)cccc1Cl [Example L-252]", "true (1)"),
    ("Nc1ncc(C(=O)N2CCS(=O)(=O)CC2)cc1OCc1c(Cl)cccc1Cl [Example L-269]", "false (0)"),
]

====

Let's look at some compounds and their measured inhibition at 1 pM.
Biological target: HGFR (Homo sapiens, UniProt P08581)
Construct: purchased Upstate 14-526
Test: HGFR continuous-coupled spectrophotometric assay
Format: biochemical
Settings: at 1 pM; Table 7, library procedure 42; read-out: % Inhibition (percent c-MET inhibition)

# structure_notation, inhibition at 1 pM, %
rows = [
    ("Nc1ncc(-c2ccc(C(=O)N3CCC(N4CCCC4)CC3)cc2)cc1OCc1ccc(-c2ccnc(Br)n2)cc1", 17),
    ("Nc1ncc(-c2ccc(C(=O)N3CCC(N4CCCC4)CC3)cc2)cc1OCc1ccc(Br)cc1F", 31),
    ("Nc1ncc(-c2ccc(C(=O)N3CCC(N4CCCC4)CC3)cc2)cc1OCc1nc(-c2cccc(C(=O)Nc3ccc(F)cc3)c2)no1", 64),
    ("COc1ccc2sc(COc3cc(-c4ccc(C(=O)N5CCC(N6CCCC6)CC5)cc4)cnc3N)cc2c1", 13),
    ("Nc1ncc(-c2ccc(C(=O)N3CCC(N4CCCC4)CC3)cc2)cc1OCc1ccc(C(=O)c2ccccc2)cc1", 31),
    ("CCCCc1nc(COc2cc(-c3ccc(C(=O)N4CCC(N5CCCC5)CC4)cc3)cnc2N)c[nH]1", 16),
    ("COc1ccc(-c2nc(COc3cc(-c4ccc(C(=O)N5CCC(N6CCCC6)CC5)cc4)cnc3N)no2)cc1", 10),
    ("Nc1ncc(-c2ccc(C(=O)N3CCC(N4CCCC4)CC3)cc2)cc1OCc1cccc(C(=O)NCc2ccncc2)c1", 10),
    ("COc1cccc(COc2cc(-c3ccc(C(=O)N4CCC(N5CCCC5)CC4)cc3)cnc2N)c1OC", 23),
    ("Nc1ncc(-c2ccc(C(=O)N3CCC(N4CCCC4)CC3)cc2)cc1OCc1ccc(S(=O)(=O)Nc2ccc(F)cc2)cc1", 15),
    ("Cc1ccc(COc2cc(-c3ccc(C(=O)N4CCC(N5CCCC5)CC4)cc3)cnc2N)c(F)c1F", 39),
    ("Nc1ncc(-c2ccc(C(=O)N3CCC(N4CCCC4)CC3)cc2)cc1OCc1csc2ccc(Cl)cc12", 37),
    ("Nc1ncc(-c2ccc(C(=O)N3CCC(N4CCCC4)CC3)cc2)cc1OCc1cc(C(F)(F)F)ccc1Cl", 26),
    ("Cc1cc(COc2cc(-c3ccc(C(=O)N4CCC(N5CCCC5)CC4)cc3)cnc2N)nc(-c2ccc(C(F)(F)F)cn2)n1", 8),
    ("Cn1c(COc2cc(-c3ccc(C(=O)N4CCC(N5CCCC5)CC4)cc3)cnc2N)nc2ccccc21", 10),
    ("Nc1ncc(-c2ccc(C(=O)N3CCC(N4CCCC4)CC3)cc2)cc1OCc1ccc(Cl)c(Cl)c1", 26),
    ("Nc1ncc(-c2ccc(C(=O)N3CCC(N4CCCC4)CC3)cc2)cc1OCc1nsc(Cl)n1", 5),
]

====

Target: Met kinase domain (GST fusion protein) (Homo sapiens)
Construct: Purified GST fusion protein containing the Met kinase domain
Sequence (P08581 1078-1345 limits assumed): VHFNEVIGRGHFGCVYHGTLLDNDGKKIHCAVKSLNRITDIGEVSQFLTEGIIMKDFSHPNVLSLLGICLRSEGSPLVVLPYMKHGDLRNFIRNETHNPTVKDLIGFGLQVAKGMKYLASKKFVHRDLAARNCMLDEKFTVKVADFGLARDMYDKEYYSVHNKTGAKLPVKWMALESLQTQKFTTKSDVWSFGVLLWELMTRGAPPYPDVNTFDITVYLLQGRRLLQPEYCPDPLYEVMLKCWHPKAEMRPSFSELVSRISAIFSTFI
Experiment: Met transphosphorylation assay (ELISA, poly(glu-tyr) substrate)
Assay type: biochemical
Settings: read-out: Met IC50
pIC50: −log10 of the molar value.
Let's look at some compounds and their measured pIC50.

# compound, pIC50
rows = [
    ("Nc1ncc(-c2ccccc2)cc1OCc1ccc(Cl)c(Cl)c1", 4.79),
    ("Nc1ncc(-c2ccc(C(=O)N3CCC[C@@H]3CN3CCCC3)cc2)cc1OCc1cccc(F)c1C(F)(F)F", 7.60),
    ("CC(Oc1nc(-c2ccc(C(=O)NC[C@@H](O)CN3CCCC3)cc2)cnc1N)c1c(Cl)ccc(F)c1Cl (some centres unmarked)", 6.82),
    ("CC(Oc1nc(-c2ccc(NC(=O)N3CCC[C@@H]3CN3CCCC3)cc2)cnc1N)c1c(F)ccc(F)c1Cl (some centres unmarked)", 6.68),
    ("Nc1ncc(-c2ccc(C(=O)N3CCC[C@@H]3CN3CCCC3)s2)nc1OCc1c(F)ccc(F)c1Cl", 6.10),
    ("CC(Oc1nc(-c2cccc(C(=O)NCCCN3CCCC3)c2)cnc1N)c1c(Cl)ccc(F)c1Cl (centres unmarked) [II-91]", 6.82),
    ("CC(=O)N[C@@H]1CCN(Cc2c[nH]c3ccc(-c4cnc(N)c(OCc5c(Cl)cccc5Cl)c4)cc23)C1", 5.75),
    ("Nc1ncc(-c2cccc3[nH]ccc23)cc1OCc1c(Cl)cccc1Cl", 5.85),
]

====

Target: Met kinase domain (GST fusion protein) (Homo sapiens)
Construct: Purified GST fusion protein containing the Met kinase domain
Assay: Met transphosphorylation assay (ELISA, poly(glu-tyr) substrate);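 note: Cell-free ELISA with plate-bound poly(Glu:Tyr 4:1) phosphorylated by GST-fused Met kinase domain plus ATP and Mn2+, phosphotyrosine detected by anti-phosphotyrosine antibody with HRP and ABTS read-out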
Assay type: biochemical
Conditions: read-out: Met IC50
Let's look at some compounds and their measured IC50.
value_kind: IC50 (nM)

# compound, value_kind, output_unit, experimental_value
measured = [
    ("Nc1ncc(-c2ccc(O)cc2)cc1OCc1ccccc1C(F)(F)F [Example I-132]", "IC50", "nM", 3670),
    ("Nc1ncc(-c2cccc(C(=O)N3CCC[C@H]3CN3CCCC3)c2)nc1OCc1c(F)ccc(F)c1Cl [II-57]", "IC50", "nM", 630),
    ("CCN(CC)CCCNC(=O)c1ccc(-c2cnc(N)c(OCc3c(Cl)cccc3Cl)c2)cc1 [Example I-37]", "IC50", "nM", 820),
    ("Nc1ncc(-c2ccccc2)cc1OCc1c(F)ccc(Cl)c1F [Example I-102]", "IC50", "nM", 9600),
]
